Reference source for all entries: ChEMBL document CHEMBL2010779

Test system: PC-12
measurement.protocol: Neuroprotective activity against amyloid beta(25-35)-induced cell death in rat PC12 cells assessed as cell viability at 10 uM incubated for 2 hrs prior to amyloid beta(25-35)-challenge measured after 24 hrs by MTT assay (reference value: 34.8 +/- 0.8%)
Assay type: functional
recorded.conditions: read-out: Activity
Measured viability at 10 µM of individual entries
Provide the reading as a plain figure in %.

Solved cases below.
molecule: C/C=C(\C)C(=O)O[C@H]1c2cc3c(c(OC)c2-c2c(cc(OC)c(OC)c2OC)[C@H](OC(C)=O)[C@@H](C)[C@H]1C)OCO3 [POLYSPERLIGNAN B]
target.entity: PC-12
value.unit: %
viability at 10 µM: 34.1
//
molecule: COc1cc2c(c(OC)c1OC)-c1c(cc3c(c1OC)OCO3)[C@H](OC(=O)/C=C/c1ccccc1)[C@H](C)[C@H](C)C2 [KADSUPHILINS A]
target.entity: PC-12
value.unit: %
viability at 10 µM: 32.3
//
molecule: COc1cc2c(c(OC)c1OC)-c1c(cc3c(c1OC)OCO3)[C@H](OC(C)=O)[C@H](C)[C@H](C)C2 [KADSURIN]
target.entity: PC-12
value.unit: %
viability at 10 µM: 32.9

Request body: readout viability at 10 µM, system PC-12, query COc1cc2c(c(OC)c1OC)-c1c(cc3c(c1OC)OCO3)[C@H](O)[C@@H](C)[C@@H](C)C2 [YUNNANKADSURIN B] . Return the value. 33.2

---

Test system: PC-12
measurement.protocol: Neuroprotective activity against H2O2-induced cell death in rat PC12 cells assessed as cell viability at 1 uM incubated for 2 hrs prior to H2O2-challenge measured after 24 hrs by MTT assay (reference value: 53.7 +/- 1.7%)
Format: functional
recorded.conditions: read-out: Activity
experimental.endpoint: viability at 1 µM (%)
Supply the numeric figure in %, leaving out any unit text.

Field: example entries. Status: answers known.
mol: COc1cc2c(c(OC)c1OC)-c1c(cc3c(c1OC)OCO3)[C@H](O)[C@H](C)[C@H](C)C2
value.unit: %
viability at 1 µM: 48.8

mol: C/C=C(/C)C(=O)O[C@H]1c2cc3c(c(OC)c2-c2c(cc(OC)c(OC)c2OC)[C@H](OC(=O)/C(C)=C\C)[C@@H](C)[C@H]1C)OCO3
value.unit: %
viability at 1 µM: 55.8

mol: C/C=C(\C)C(=O)O[C@H]1c2cc(OC)c(OC)c(OC)c2-c2c(cc3c(c2OC)OCO3)[C@H](OC(=O)CC)[C@H](C)[C@H]1C
value.unit: %
viability at 1 µM: 54.6

mol: COc1cc2c(c(OC)c1OC)-c1c(cc3c(c1OC)OCO3)[C@H](OC(=O)/C=C\c1ccccc1)[C@H](C)[C@H](C)C2
value.unit: %
viability at 1 µM: 55.2

mol: C/C=C(/C)C(=O)Oc1c(OC)c(OC)cc2c1-c1c(cc(OC)c(OC)c1OC)[C@H](O)[C@H](C)[C@H](C)[C@H]2OC(=O)/C(C)=C\C
value.unit: %
viability at 1 µM: 53.3

mol: C/C=C(/C)C(=O)O[C@H]1c2cc3c(c(OC)c2-c2c(cc(OC)c(OC)c2OC)[C@H](OC(=O)/C=C/c2ccccc2)[C@@H](C)[C@H]1C)OCO3
value.unit: %
viability at 1 µM: 57.1

Attention now turns to another entry.
Return reported viability at 1 µM; argument: C/C=C(\C)C(=O)Oc1c(OC)c(OC)cc2c1-c1c(cc(OC)c(OC)c1OC)[C@H](O)[C@H](C)[C@H](C)C2 50.4
